test: Cytotoxicity against mouse J774A1 cells assessed as cell viability at 0.01 ug/ml after 7 days by MTT assay relative to control; type: cell-based, J774.A1; details: read-out: Activity
assay_readout: viability at 168 h, 0.01 ug/ml (%)
The answer is to be given in %; state only the numeric part.

Recall and state the measured viability at 168 h, 0.01 ug/ml for CO[C@H]1/C=C/O[C@@]2(C)Oc3c(C)c(O)c4c(O)c(c(/C=N/N5CCN(C)CC5)c(O)c4c3C2=O)NC(=O)/C(C)=C\C=C\[C@H](C)[C@H](O)[C@@H](C)[C@@H](O)[C@@H](C)[C@H](OC(C)=O)[C@@H]1C . 94
